System: PAD
test-description: Induction of PAD activity against human A549 cells
Assay type: toxicity, cell-based
experimental-endpoint: pIC50
Schema: pIC50 number; meaning minus log10 of the concentration expressed in molar units.

Task: pIC50 for NC(=O)[C@@H]1[C@H](Nc2nc(Nc3cccc(C(=O)N4CCCC4)c3)nc3[nH]cnc23)[C@H]2C=C[C@@H]1C2 ?
Output: 5.40

Task: How about this compound: NC(=O)[C@@H]1[C@H](Nc2nc(Nc3cc(F)cc(C(=O)N4CCCC4)c3)nc3ccsc23)[C@H]2C=C[C@@H]1C2
Output: 5.74

Task: How about this compound: Cc1n[nH]c2nc(Nc3cccc(C(=O)N4CCCC4)c3)nc(N[C@H]3[C@@H](C(N)=O)[C@@H]4C=C[C@H]3C4)c12
Output: 5.80

Task: How about this compound: CN1CCN(c2cc(F)cc(Nc3nc(N[C@H]4[C@@H](C(N)=O)[C@@H]5C=C[C@H]4C5)c4sccc4n3)c2)CC1
Output: 5.82
